- EXPERIMENTAL TARGET: Gcr1 (UniProt P07261)
- Sequence: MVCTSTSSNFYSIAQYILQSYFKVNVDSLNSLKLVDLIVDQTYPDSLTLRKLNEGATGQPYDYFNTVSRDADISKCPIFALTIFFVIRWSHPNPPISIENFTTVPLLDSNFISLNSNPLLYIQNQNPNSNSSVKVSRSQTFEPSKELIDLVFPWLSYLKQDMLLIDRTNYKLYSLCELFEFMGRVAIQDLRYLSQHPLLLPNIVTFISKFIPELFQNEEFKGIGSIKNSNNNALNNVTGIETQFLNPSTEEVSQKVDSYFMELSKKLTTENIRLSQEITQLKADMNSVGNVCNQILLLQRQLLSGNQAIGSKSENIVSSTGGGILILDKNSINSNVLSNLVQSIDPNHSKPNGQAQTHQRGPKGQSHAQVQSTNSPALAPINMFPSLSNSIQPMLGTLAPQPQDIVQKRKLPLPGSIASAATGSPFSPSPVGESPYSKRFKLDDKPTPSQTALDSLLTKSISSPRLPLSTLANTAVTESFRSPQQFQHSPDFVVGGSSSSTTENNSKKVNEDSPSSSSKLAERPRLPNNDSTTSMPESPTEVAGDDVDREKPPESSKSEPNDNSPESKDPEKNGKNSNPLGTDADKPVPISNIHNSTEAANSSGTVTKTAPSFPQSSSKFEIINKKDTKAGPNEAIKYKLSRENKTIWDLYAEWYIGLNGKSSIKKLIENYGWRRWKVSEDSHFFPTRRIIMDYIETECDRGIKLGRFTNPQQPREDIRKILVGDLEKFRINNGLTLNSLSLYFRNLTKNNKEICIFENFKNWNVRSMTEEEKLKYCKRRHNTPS
- TEST METHOD NOTES: PBM E-score (8-mer binding enrichment) (E-score (-0.5 to 0.5)); higher = stronger / more preferred TF binding
- RUN PARAMETERS: protein concentration: 100 nM; construct: GST-full length
Over roughly 33,000 sequences, “E-score (-0.5 to 0.5)” has its median near -0.011; the highest 2% begin near 0.28. What follows is part of a selection rich in the highest values, with near analogues and random picks from the rest.
We use -0.05 as the dividing line for PBM E-score: on or above the line is Condition met, below is Condition not met.

MONOMER SEQUENCE | EXPERIMENTAL TARGET | CAT
ACACCCTA | Gcr1 (UniProt P07261) | Condition met
GTACTTGA | Gcr1 (UniProt P07261) | Condition not met
AACGCCTA | Gcr1 (UniProt P07261) | Condition not met
GCACCCAA | Gcr1 (UniProt P07261) | Condition met
GCGCCCTA | Gcr1 (UniProt P07261) | Condition met
GGCCCGCA | Gcr1 (UniProt P07261) | Condition met
AGTCTTCG | Gcr1 (UniProt P07261) | Condition not met
CGCGAGTC | Gcr1 (UniProt P07261) | Condition not met
CCGCCCTA | Gcr1 (UniProt P07261) | Condition not met
GCATCTCA | Gcr1 (UniProt P07261) | Condition met
ATAGATTC | Gcr1 (UniProt P07261) | Condition met
CGACGAAG | Gcr1 (UniProt P07261) | Condition not met
ATCGTCCA | Gcr1 (UniProt P07261) | Condition met
ATCCAATC | Gcr1 (UniProt P07261) | Condition met
GCCGTCCC | Gcr1 (UniProt P07261) | Condition not met
ATGGTTCC | Gcr1 (UniProt P07261) | Condition met
AGCTAGGA | Gcr1 (UniProt P07261) | Condition met
ACTAATGC | Gcr1 (UniProt P07261) | Condition met
GGCGTCCC | Gcr1 (UniProt P07261) | Condition met
CGACTCGA | Gcr1 (UniProt P07261) | Condition not met
CACTCCAG | Gcr1 (UniProt P07261) | Condition met
ATACGAAG | Gcr1 (UniProt P07261) | Condition met
GCGCCTAA | Gcr1 (UniProt P07261) | Condition met
AGCGTCCT | Gcr1 (UniProt P07261) | Condition met
ATAGTAAG | Gcr1 (UniProt P07261) | Condition met
ACAGGGAC | Gcr1 (UniProt P07261) | Condition met
CCGATACA | Gcr1 (UniProt P07261) | Condition met
AAGCTTCA | Gcr1 (UniProt P07261) | Condition not met
ACCGTCCT | Gcr1 (UniProt P07261) | Condition not met
ACGCCCTA | Gcr1 (UniProt P07261) | Condition met
GGTTTGGA | Gcr1 (UniProt P07261) | Condition met
GGGCTCAC | Gcr1 (UniProt P07261) | Condition not met
AAGCCGAT | Gcr1 (UniProt P07261) | Condition not met
CCACCCTA | Gcr1 (UniProt P07261) | Condition met
AGCGTCCG | Gcr1 (UniProt P07261) | Condition met
CGACCGTC | Gcr1 (UniProt P07261) | Condition not met
CACGCTGC | Gcr1 (UniProt P07261) | Condition met
CAGAACCG | Gcr1 (UniProt P07261) | Condition met
ATACGAAT | Gcr1 (UniProt P07261) | Condition met
GTTACCCA | Gcr1 (UniProt P07261) | Condition not met
GCCAAGAA | Gcr1 (UniProt P07261) | Condition met
TCAGGCCA | Gcr1 (UniProt P07261) | Condition not met
AACGTCCT | Gcr1 (UniProt P07261) | Condition met
CCCCCGGC | Gcr1 (UniProt P07261) | Condition met
GACGCTGC | Gcr1 (UniProt P07261) | Condition met
AAGTTGCG | Gcr1 (UniProt P07261) | Condition met
CAGCTTCG | Gcr1 (UniProt P07261) | Condition met
CGCGTCCC | Gcr1 (UniProt P07261) | Condition met
CTGGTTGC | Gcr1 (UniProt P07261) | Condition met
AAGCTTCC | Gcr1 (UniProt P07261) | Condition met
CCCTCTCA | Gcr1 (UniProt P07261) | Condition not met
CGGTTAGC | Gcr1 (UniProt P07261) | Condition not met
CGCAGGCG | Gcr1 (UniProt P07261) | Condition met
AAGCTTCT | Gcr1 (UniProt P07261) | Condition met
CAGCTTCC | Gcr1 (UniProt P07261) | Condition met
CTTCCGAC | Gcr1 (UniProt P07261) | Condition met
CCCGACGG | Gcr1 (UniProt P07261) | Condition not met
AGCTTATG | Gcr1 (UniProt P07261) | Condition met
ATGGTTGC | Gcr1 (UniProt P07261) | Condition met
ATGGGTGG | Gcr1 (UniProt P07261) | Condition met
